SI IIIB overview
system: WT HIV-1 (IIIB); test: microbe, parasite or virus in culture; type: cell-based; settings: ratio of CC50/EC50, IIIB

{"MOLECULE": "CCOP(=O)(OCC)c1ccc(CN2CCC(Nc3nc(Oc4c(C)cc(/C=C/C#N)cc4C)c4sccc4n3)CC2)cc1 [15c]", "SI IIIB": 309}
{"MOLECULE": "Cc1cc(/C=C/C#N)cc(C)c1Oc1nc(NC2CCN(Cc3ccc(P(=O)(O)O)cc3)CC2)nc2ccsc12", "SI IIIB": ">57"}
{"MOLECULE": "Cc1cc(C#N)cc(C)c1Oc1nc(NC2CCN(Cc3ccc(P(=O)(OCC(C)C)OCC(C)C)cc3)CC2)nc2ccsc12", "SI IIIB": 97}
{"MOLECULE": "Cc1cc(/C=C/C#N)cc(C)c1Oc1nc(NC2CCN(Cc3ccc(P(=O)(OCC(C)C)OCC(C)C)cc3)CC2)nc2ccsc12 [15h]", "SI IIIB": 109}
{"MOLECULE": "COP(=O)(OC)c1ccc(CN2CCC(Nc3nc(Oc4c(C)cc(/C=C/C#N)cc4C)c4sccc4n3)CC2)cc1 [15b]", "SI IIIB": 1827}
{"MOLECULE": "Cc1cc(C#N)cc(C)c1Oc1nc(NC2CCN(Cc3ccc(P(C)(C)=O)cc3)CC2)nc2ccsc12", "SI IIIB": "97,727"}
{"MOLECULE": "CCOP(=O)(OCC)c1ccc(CN2CCC(Nc3nc(Oc4c(C)cc(C#N)cc4C)c4sccc4n3)CC2)cc1", "SI IIIB": "16,957"}
{"MOLECULE": "Cc1cc(C#N)cc(C)c1Oc1nc(NC2CCN(Cc3ccc(P(=O)(O)O)cc3)CC2)nc2ccsc12", "SI IIIB": ">14"}
{"MOLECULE": "Cc1cc(C#N)cc(C)c1Oc1nc(NC2CCN(Cc3ccc(P(=O)(OC(C)(C)C)OC(C)(C)C)cc3)CC2)nc2ccsc12", "SI IIIB": 164}
{"MOLECULE": "COP(=O)(OC)c1ccc(CN2CCC(Nc3nc(Oc4c(C)cc(C#N)cc4C)c4sccc4n3)CC2)cc1", "SI IIIB": "15,014"}
